Test system: biotinyl-Phe-oxazolone
Assay: self-aminoacylation, catalytic enhancement (BFO) (fold over background); higher = more active; k-Seq, kA / k0A0; sequences stand for … in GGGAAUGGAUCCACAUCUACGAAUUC…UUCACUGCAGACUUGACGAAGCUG
Fewer inactive variants are shown than the library holds.
Think of 5 as a floor: if self-aminoacylation stands on it or above, it is true; beneath it, false.

Solved cases (3 shown):
[
  {
    "SEQUENCE_INPUT": "AUUACCCUGCUUAUCGAGUGA [Fam2.1 aminoacylation ribozyme variant]",
    "LABEL": "false"
  },
  {
    "SEQUENCE_INPUT": "AAGUUUGCUCAUUGUCGCAAG [Fam3.1 aminoacylation ribozyme variant]",
    "LABEL": "false"
  },
  {
    "SEQUENCE_INPUT": "CAACUUCAAACAAUCGCUCUG [Fam1A.1 aminoacylation ribozyme variant]",
    "LABEL": "false"
  }
]

(Q) Hi team, for AUUACCCUCGUCAUCGACUGA [Fam2.1 aminoacylation ribozyme variant] , is the recorded self-aminoacylation at or above 5?
(A) false

(Q) Test whether the sequence AUUCAGCUAGGUCAUCGGGUA [Fam2.2 aminoacylation ribozyme variant] records self-aminoacylation of 5 or higher.
(A) true

(Q) # bool: self-aminoacylation of AUUCACCGAGGUCACCGGGUG [Fam2.2 aminoacylation ribozyme variant] >= 5
(A) true

(Q) Threshold query (self-aminoacylation >= 5) on CUACUUCAGACACUCGGUCUG [Fam1A.1 aminoacylation ribozyme variant]
(A) false
